# Tested on: Salmonella typhimurium
# Experiment summary: Mutagenic activity in Salmonella Typhimurium TA98 assessed as number of his+ revertants at 1000 ug/plate after 48 to 72 hrs by Ames test in absence of S9 fraction
# Type: toxicity, organism-based
# Condition parameters: salmonella enterica subsp. enterica serovar typhimurium
Measured quantity: Activity
// print number alone

C/C=C/c1c(OC)ccc(OC)c1OC.CC(C)CCC[C@@H](C)[C@H]1CC[C@H]2[C@@H]3CC=C4C[C@@H](O)CC[C@]4(C)[C@H]3CC[C@]12C    23
C/C=C/c1cc(OC)c(OC)c(OC)c1    32
C/C=C/c1ccc(OC)c(OC)c1OC    20

Record C/C=C/c1c(OC)cc(OC)cc1OC . Reported Activity: 26

* * *

Listed molecules paired with reported Activity
# Test system: Salmonella typhimurium
# Experiment summary: Mutagenic activity in Salmonella Typhimurium TA100 assessed as number of his+ revertants at 500 ug/plate after 48 to 72 hrs by Ames test in presence of S9 fraction
# Assay type: toxicity, organism-based
# Condition parameters: salmonella enterica subsp. enterica serovar typhimurium
// print number alone

Examples with their reported Activity follow.
C/C=C/c1ccc(OC)c(OC)c1OC    160
C/C=C/c1c(OC)ccc(OC)c1OC.CC(C)CCC[C@@H](C)[C@H]1CC[C@H]2[C@@H]3CC=C4C[C@@H](O)CC[C@]4(C)[C@H]3CC[C@]12C    186
C/C=C/c1cc(OC)c(OC)c(OC)c1    108

Record C/C=C/c1c(OC)cc(OC)cc1OC . Reported Activity: 156

* * *

# Tested on: Salmonella typhimurium
# Experiment summary: Mutagenic activity in Salmonella Typhimurium TA97 assessed as number of his+ revertants at 500 ug/plate after 48 to 72 hrs by Ames test in absence of S9 fraction
# Format: toxicity, organism-based
# Condition parameters: salmonella enterica subsp. enterica serovar typhimurium
Measured quantity: Activity
// print number alone

Examples with their reported Activity follow.
C/C=C/c1ccc(OC)c(OC)c1OC    151
C/C=C/c1cc(OC)c(OC)c(OC)c1    88
C/C=C/c1c(OC)ccc(OC)c1OC.CC(C)CCC[C@@H](C)[C@H]1CC[C@H]2[C@@H]3CC=C4C[C@@H](O)CC[C@]4(C)[C@H]3CC[C@]12C    137

// switching to the query compound
Salmonella typhimurium assay, compound C/C=C/c1c(OC)cc(OC)cc1OC , recorded Activity = 190

* * *

# Test system: Salmonella typhimurium
# Experiment summary: Mutagenic activity in Salmonella Typhimurium TA97 assessed as number of his+ revertants at 100 ug/plate after 48 to 72 hrs by Ames test in absence of S9 fraction
# Format: toxicity, organism-based
# Condition parameters: salmonella enterica subsp. enterica serovar typhimurium
Measured quantity: Activity
// print number alone

Record C/C=C/c1c(OC)ccc(OC)c1OC.CC(C)CCC[C@@H](C)[C@H]1CC[C@H]2[C@@H]3CC=C4C[C@@H](O)CC[C@]4(C)[C@H]3CC[C@]12C . Reported Activity: 153

* * *

# Test system: Salmonella typhimurium
# Experiment summary: Mutagenic activity in Salmonella Typhimurium TA100 assessed as number of his+ revertants at 1000 ug/plate after 48 to 72 hrs by Ames test in absence of S9 fraction
# Assay type: toxicity, organism-based
# Condition parameters: salmonella enterica subsp. enterica serovar typhimurium
Measured quantity: Activity

Examples with their reported Activity follow.
C/C=C/c1cc(OC)c(OC)c(OC)c1    73
C/C=C/c1c(OC)cc(OC)cc1OC    148
C/C=C/c1ccc(OC)c(OC)c1OC    100

// switching to the query compound
Salmonella typhimurium assay, compound C/C=C/c1c(OC)ccc(OC)c1OC.CC(C)CCC[C@@H](C)[C@H]1CC[C@H]2[C@@H]3CC=C4C[C@@H](O)CC[C@]4(C)[C@H]3CC[C@]12C , recorded Activity = 96
